Measured inhibition at 10 µM of individual entries
tested on: EKVX; assay: NCI-60 one-dose screen; type: cell-based; conditions: Homo sapiens, Non-small cell lung panel, single dose 10^−5 M, read-out: Growth inhibition %
REPORTED_METRIC: inhibition at 10 µM (%)

COMPOUND: Fc1ccc(CNc2c3ccccc3nc3ccccc23)cc1 [Compound 10, Acridin-9-yl-(4-fluorobenzyl)-amine]
UNIT_LABEL: %
REPORTED_VALUE: 64.4
--
COMPOUND: c1csc(-c2ccc(CNc3c4ccccc4nc4ccccc34)cc2)c1 [Compound 24]
UNIT_LABEL: %
REPORTED_VALUE: 41
--
COMPOUND: COc1ccc(CNc2c3ccccc3nc3ccccc23)c(OC)c1 [Compound 17, Acridin-9-yl-(2,4-dimethoxybenzyl)-amine]
UNIT_LABEL: %
REPORTED_VALUE: 48.9
--
COMPOUND: COc1ccc2nc3ccccc3c(NCc3ccc(C)cc3)c2c1 [Compound 26]
UNIT_LABEL: %
REPORTED_VALUE: 64.8
--
COMPOUND: COc1ccc(CNc2c3ccccc3nc3ccccc23)cc1F [Compound 19]
UNIT_LABEL: %
REPORTED_VALUE: 73.9
--
COMPOUND: Fc1ccccc1CNc1c2ccccc2nc2ccccc12 [Compound 8, Acridin-9-yl-(2-fluorobenzyl)-amine]
UNIT_LABEL: %
REPORTED_VALUE: 38.3
--
COMPOUND: COc1ccc2nc3ccccc3c(NCc3ccc(Cl)cc3)c2c1 [Compound 29]
UNIT_LABEL: %
REPORTED_VALUE: 66.2
--
COMPOUND: COc1cccc(CNc2c3ccccc3nc3ccccc23)c1 [Compound 6, Acridin-9-yl-(3-methoxybenzyl)-amine]
UNIT_LABEL: %
REPORTED_VALUE: 48.2
